These data points were gathered from PubChem BioAssay (NCI).

Experiment: NCI Yeast Anticancer Drug Screen. Data for the sgs1 mgt1 strain (AID 161);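 further: 0% = growth of cultures given vehicle only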
Conditions: S. cerevisiae sgs1 mgt1 strain, at 5.0 µM (retest, dose inferred, filed as 0.5)
Method: Growth inhibition of yeast strains with defined genetic alterations is measured as a screen for potential anti-cancer activity. Selected strains with alterations in DNA damage repair or cell cycle control were exposed to compounds and growth inhibition was measured relative to vehicle treated controls. The strain used in this assay is sgs1 mgt1
This is part of a sample that, as a whole, favours compounds with a hit. Of some 79,000 tested, about 15% had one in any assay. Calls of active or inactive are those of the source. No stated cut-off is given here; in the data, active means growth inhibition above about 70%; inactive means the rest.
Lab note: assign the record to one of active, inactive

Q: Record request — test call for C=C(Br)CN(CC)CC
A: inactive

Q: Hello, I am checking results. What call was entered for C[Si](C)(CCC(=O)O)O[Si](C)(C)CCC(=O)O ?
A: inactive

Q: What outcome does the record of this test show for Cn1c(=S)c2[nH]c(SCc3ccncc3)nc2n(C)c1=O ?
A: inactive

Q: For Cc1ccc(S(=O)(=O)NNc2nc(N3CCOCC3)nc(N3CCOCC3)n2)cc1 , which call appears in the assay record?
A: inactive

Q: Per the records of this test, what outcome belongs to C/C(=N\NC(=S)N1CCN(C2CCCCC2)CC1)c1ccccn1 ?
A: inactive

Q: Could you please tell me the result logged for O=S(=O)(/C=C/c1cccnc1)/C=C/c1cccnc1 in this assay?
A: inactive

Q: Each compound tested received a call. Report the one for C=CCCCCn1c2ccccc2c2c(C)c3c[n+](C)ccc3c(C)c21 .
A: active

Q: Hey, what did the test say about CN(C)CCCc1ccc2oc3ccccc3c2c1 ?
A: inactive

Q: Could you check what this test reported for CCc1cc(CC)c(-c2ccco2)c(COC(=O)NC)c1 ?
A: inactive

Q: Test call for this compound, please: CN(C)CC/[N+]([O-])=C(/c1ccccc1)C12CC3CC(CC(C3)C1)C2
A: inactive

Q: How was CC1C(=O)C(Br)CC2C1(C)CCC1C2(C)CCC2(C)C3CC(C)(C)CCC3(C)CCC12C (configuration not stated) classified in this test?
A: inactive

Q: Hello, I am checking results. What call was entered for S=C(Nc1ccccc1)SCc1ccc(Cl)cc1 ?
A: inactive

* * *

Would you mind telling me the reported growth inhibition of each entry?
Test: NCI Yeast Anticancer Drug Screen. Data for the mec2-1 strain (AID 157)
Conditions: S. cerevisiae mec2-1 strain, at 5.0 µM (retest, dose inferred, filed as 0.5), active compounds read high
The panel holds about 79,000 compounds, 15% with a hit somewhere; the sample as a whole holds those more often.
Dear colleague, please return just the value in %, with no unit written.

The measured growth inhibition associated with N/C(=N\N=C/c1ccc(O)c(O)c1O)NO reads 5

C1=C(c2ccccc2)C(c2ccccc2)C(c2ccccc2)C/C1=N/OCCN1CCCC1 (configuration not stated) yielded growth inhibition of 55

Measured growth inhibition of CCCCN(CCCC)CC(O)c1cc(-c2ccc(Cl)cc2)nc2cc(C)ccc12 (configuration not stated) : 17

// sample SCCCCCCCCCCS , its growth inhibition was 0

// growth inhibition value for CC(=O)Nc1ccc(-c2nnc(SCC(=O)Nc3cccc(Cl)c3)o2)cc1 : 1

Input O=S1(=O)C(Br)=Cc2ccccc21 . Output growth inhibition: -6

Sample Cc1ccc(S(=O)(=O)N2CCN(C)CC2)cc1 ; growth inhibition observed: -5

Lab note: measured growth inhibition of COc1ccc(CSC2=C(C#N)C(=O)NC3(CCCCC3)S2)cc1 was -1

Memo: Cc1cc(C)nc(/C=C/c2ccccc2)c1 , reported growth inhibition: 1

Field growth inhibition (entry O=C(c1ccccc1)c1ccc2cccc(O)c2n1 ) reads -18

Noted for CC(C)(C)N=C=NC(c1ccccc1)(c1ccccc1)c1ccccc1 : its growth inhibition reads -9

For record Cc1c(O)c(Br)c(Br)c(Br)c1Br the listed growth inhibition is 78
